Each recorded value in this set is attributed to patent US9695155B2.

- Tested on: pigweed
- assayName: Test A postemergence
- Assay type: in vivo, Amaranthus retroflexus
- protocolConditions: 125 g ai/ha, 0 to 100 scale where 0 is no effect and 100 is complete control
Label criterion met when Pigweed plant response rating is strictly below 80; at or above that, label criterion not met.

- smilesNotation: "Cc1ccc(Oc2ncc(Cl)cn2)c(-n2cc(Br)cn2)c1Br"
  groupLabel: "criterion met"

Continue with the molecule presented below.
Prompt: Criterion: Pigweed plant response rating strictly below 80. Is it met by "CCCc1cnc(Oc2cccc(C#N)c2-n2cc(Br)cn2)nc1" ?
Completion: criterion met

---

- Test system: pigweed
- assayName: Test C postemergence
- Assay type: in vivo, Amaranthus retroflexus
- protocolConditions: Amaranthus retroflexus, post-emergence; Postemergence, 62 g ai/ha; scale 0 to 100 (0 no effect, 100 complete control); read-out: Plant response rating, Pigweed
// reported pest or weed control at 62 g/ha per item
State just the number; it will be interpreted in %.

- smilesNotation: "Fc1cnc(Oc2ccccc2-n2cc(Br)cn2)nc1"
  quantityUnit: "%"
  pest or weed control at 62 g/ha: 98
- smilesNotation: "FC(F)(F)c1cn(-c2ccccc2Oc2ncc(Cl)cn2)nn1"
  quantityUnit: "%"
  pest or weed control at 62 g/ha: 90
- smilesNotation: "N#Cc1cccc(Oc2ncc(Cl)cn2)c1-n1cc(C(F)(F)F)cn1"
  quantityUnit: "%"
  pest or weed control at 62 g/ha: 95
- smilesNotation: "N#Cc1cccc(Oc2ncc(Br)cn2)c1-n1cc(C(F)(F)F)cn1"
  quantityUnit: "%"
  pest or weed control at 62 g/ha: 90
- smilesNotation: "Clc1cnc(Oc2ccccc2-n2cc(Br)cn2)nc1"
  quantityUnit: "%"
  pest or weed control at 62 g/ha: 100

Pending compound:
Prompt: Can you look up the measured pest or weed control at 62 g/ha of "FC(F)(F)Sc1cnn(-c2ccccc2Oc2ncc(Cl)cn2)c1" for me?
Completion: 75

---

// reported Velvetleaf plant response rating per item
- System: velvetleaf
- assayName: Test C preemergence
- Type: in vivo, Abutilon theophrasti
- protocolConditions: 125 g ai/ha, preemergence; scale 0 (no effect) to 100 (complete control)
Lab note: record just the number, no unit beside it.

Answered cases to consult:
- compound: "N#Cc1cccc(Oc2ncc(F)cn2)c1-n1cc(Cl)cn1 [Compound 73]"
  Velvetleaf plant response rating: 100
- compound: "N#Cc1cnn(-c2c(Oc3ncc(Cl)cn3)cccc2C(F)F)c1 [Compound 236]"
  Velvetleaf plant response rating: 100

Prompt: Can you look up the measured Velvetleaf plant response rating of N#Cc1cnn(-c2c(CF)cccc2Oc2ncc(F)cn2)c1 [Compound 151] for me?
Completion: 100

Prompt: Try this compound too: FCc1cccc(Oc2ncc(Cl)cn2)c1-n1cc(Br)cn1 [Compound 83]
Completion: 100

Prompt: Try this compound too: N#Cc1cn(-c2c(Br)cccc2Oc2ncc(Cl)cn2)nn1 [Compound 116]
Completion: 100

Prompt: Try this compound too: Cc1cnc(Oc2cccc(C#N)c2-n2cc(I)cn2)nc1 [Compound 136]
Completion: 90

Prompt: Try this compound too: Fc1cccc(Oc2ncc(Cl)cn2)c1-n1cc(OCC(F)(F)F)cn1 [Compound 270]
Completion: 100

Prompt: Try this compound too: CCCOc1cnn(-c2c(C#N)cccc2Oc2ncc(Cl)cn2)c1 [Compound 150]
Completion: 70

Prompt: Try this compound too: Fc1cccc(Oc2ncc(Cl)cn2)c1-n1cc(I)cn1 [Compound 179]
Completion: 100
